System: CP256
Assay: qHTS profiling for inhibitors of Plasmodium falciparum proliferation (AID 504749); further: nearly all actives have a fitted effect of over 60% in size
Details: P. falciparum in erythrocytes, SYBR Green DNA, 72 h; series mostly up to 28.7 µM
Results filed as inconclusive are left out. The source made the active and inactive calls. The call rests on the fitted dose curve; in most records, active means well fitted inhibition curve with a large enough effect; inconclusive means small, poorly fitted or top-dose-only effect; inactive means flat fitted curve, though single readings scatter.
Use one of these outcomes when replying: active, inactive

Query: recorded result category for Cc1cc2cc3c(C)cc(=O)oc3c(C)c2o1 in this test
inactive

Record request — test call for CCCCN(CCCC)CCC(O)c1cc2c(Cl)cc(Cl)cc2c2cc(C(F)(F)F)ccc12 (stereo unspecified)
active

Returns: the outcome recorded for CNC[C@H](O)c1ccc(O)c(O)c1 in this assay.
inactive

---

Target: Tyrosine-protein kinase Yes (Homo sapiens)
Assay: qHTS for small molecule inhibitors of Yes1 kinase: Primary Screen (AID 686947); further: nearly all actives have a fitted effect of over 60% in size; further: potency means the concentration at half of the fitted maximal effect
Settings: Yes1 kinase biochemical qHTS inhibition; series mostly up to 76.9 µM
Inconclusive results are not listed. Calls of active or inactive are those of the source. The call rests on the fitted dose curve; in most records, active means well fitted inhibition curve with a large enough effect; inconclusive means small, poorly fitted or top-dose-only effect; inactive means no such curve, though single readings can be large or run the other way.
value-kind: Potency

* Oc1ccc(-c2nc(-c3ccc(F)cc3)c(-c3ccncc3)[nH]2)cc1 | 17.3 µM (active)
* S=c1nc[nH]c2nc[nH]c12 | inactive
* CCN(CCO)CCCC(C)Nc1ccnc2cc(Cl)ccc12 (stereo not given) | inactive
* O=C(NOCC1CC1)c1ccc(F)c(F)c1Nc1ccc(I)cc1Cl | inactive

Could you now look at the following compound, please?
Tested system Tyrosine-protein kinase Yes (Homo sapiens); Potency recorded for O=Nc1c(-c2c(O)[nH]c3cc(Br)ccc23)[nH]c2ccccc12 was 0.154 µM (active)

---

Test system: Es-2
Assay: Primary qHTS to identify gynecologic anti-cancer compounds using libraries of approved drugs and bioactive compounds (AID 1345084); further: nearly all actives have a fitted effect of over 55% in size
Conditions: Gynecologic cancer cell panel viability, ATPlite luminescence, 48 h; series mostly up to 57.5 µM
Inconclusive results are not listed. Calls of active or inactive are those of the source. Calls come from the whole dose curve; as a rule, active = well fitted cell-killing curve with a large enough effect; inconclusive = small, poorly fitted or top-dose-only effect, or effect the other way; inactive = flat fitted curve, though single readings scatter. Non-standard residues stand in square brackets, D forms with d. Residues, ends and D or L forms follow the SMILES beside them. *: point of attachment. Sta = CC(C)C[C@H](N)[C@@H](O)CC(=O)O; Isovaleryl = CC(C)CC(=O)*
Field 'call' accepts active, inactive

• CN(C)C(=O)COC(=O)Cc1ccc(OC(=O)c2ccc(N=C(N)N)cc2)cc1 = inactive
• CC1(C)CCC(C)(C)c2cc(NC(=O)c3ccc(C(=O)O)cc3)ccc21 = inactive
• CCCc1cc(=O)[nH]c(=S)[nH]1 = inactive

# fetch the recorded call for CC(=O)Nc1ccc(O)cc1 here
inactive

What was the test verdict on CCC(C)(Oc1ccc(C2(c3ccc(OC(C)(CC)C(=O)O)cc3)CCCCC2)cc1)C(=O)O (configuration not stated) ?
inactive

Name the outcome recorded for CC(C)Oc1ccc2c(=O)c(-c3ccccc3)coc2c1 in the assay.
active

Which outcome did this test record for the compound Nc1cc(C(Cl)=C(Cl)Cl)c(S(N)(=O)=O)cc1S(N)(=O)=O ?
inactive

Query: recorded result category for CN(C)c1ccc2nc3ccc(=[N+](C)C)cc-3sc2c1 in this test
active

Tell me the assay call for O=C(NOCC1CC1)c1ccc(F)c(F)c1Nc1ccc(I)cc1Cl please.
inactive

Test call for this compound, please: CC(C)CC(=O)N[C@H](C(=O)N[C@H](C(=O)N[C@@H](CC(C)C)[C@@H](O)CC(=O)N[C@@H](C)C(=O)N[C@@H](CC(C)C)[C@@H](O)CC(=O)O)C(C)C)C(C)C (Isovaleryl-VV[Sta]A[Sta]-OH)
inactive

What is the recorded call for this compound in the test? CCCCC(CC)COC(=O)C(C#N)=C(c1ccccc1)c1ccccc1 (configuration not stated)
inactive

Could you please tell me the result logged for O=C(NC(Cc1cc(=O)[nH]c2ccccc12)C(=O)O)c1ccc(Cl)cc1 (configuration not stated) in this assay?
inactive
